The measurements presented in this section are drawn from PubChem BioAssay AID1159580.

Experimental protocol: chemical genetic growth profiling, strain panel (AID 1159580);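 also: tested at 20 µM; growth read once vehicle control cultures reached saturation at 30 °C; lower values mean less growth of the strain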
Condition details: S. cerevisiae deletion strains, growth OD, locus YNL250W, strain rad50, active compounds read low
Hit rate of the full screen: of about 5,500 compounds, about 2,000 (36%) were called active. Roughly 18% stayed inconclusive and do not appear here. The list shows a part of the results.
# label = Yes if normalized growth < 1 else No

[[record]]
compound = "O=C(O)CCCc1ccc(N(CCCl)CCCl)cc1"
category = "Yes"


input: Does this compound meet the criterion normalized growth < 1? C=C[C@@](C)(O)CCC1C(=C)C[C@H](O)C2C(C)(C)CCCC12C (stereo not given in full)
output: No

input: Does this compound meet the criterion normalized growth < 1? C=C1CCC2[C@](C)(CO)[C@H](O)CC[C@@]2(C)[C@@H]1C/C=C1/C(=O)OC[C@H]1O (stereo not given in full)
output: No

input: Does this compound meet the criterion normalized growth < 1? O=C(O)CCCc1ccccc1
output: Yes

input: Does this compound meet the criterion normalized growth < 1? CN(C)CCN(Cc1ccccc1)c1ccccn1
output: Yes

input: Does this compound meet the criterion normalized growth < 1? O=C1C(Cl)=C(Cl)C(=O)C(Cl)=C1Cl
output: Yes
